# Experimental Target: SARS-CoV-2 spike protein (Severe acute respiratory syndrome coronavirus 2)
# Construct: purchased Biosource, Muskego, WI, USA
# Method Summary: biochemical
# Assay type: binding
# Condition Parameters: tested concentration 200 nM; read-out: remaining activity % of SARS-CoV-2 spike proteins

{"Molecule": "S=c1[nH]nc(Cn2cc(CSc3nc4ccccc4n3Cc3cn(Cc4n[nH]c(=S)n4-c4ccccc4)nn3)nn2)n1-c1ccccc1 [compound 6]", "remaining activity at 0.2 µM (%)": 65.4}
{"Molecule": "Nn1c(Cn2cc(CSc3nc4ccccc4n3Cc3cn(Cc4n[nH]c(=S)n4N)nn3)nn2)n[nH]c1=S [compound 7]", "remaining activity at 0.2 µM (%)": 77.2}
{"Molecule": "O=C(Cn1cc(CSc2nc3ccccc3n2Cc2cn(CC(=O)NNC(=S)Nc3ccccc3)nn2)nn1)NNC(=S)Nc1ccccc1 [compound 4]", "remaining activity at 0.2 µM (%)": 46}
{"Molecule": "Cc1ccc2nc(NC(=O)Cn3cc(CN4C(=O)C(=O)c5ccccc54)nn3)sc2c1 [compound 12]", "remaining activity at 0.2 µM (%)": 92.5}

---

# Experimental Target: SARS-CoV-2 spike protein (Severe acute respiratory syndrome coronavirus 2)
# Construct: purchased Biosource, Muskego, WI, USA
# Method Summary: biochemical
# Type: binding
# Condition Parameters: tested concentration 100 nM; read-out: remaining activity % of SARS-CoV-2 spike proteins
Reported remaining activity at 0.1 µM values are given for each entry in this list.

{"Compound": "Cc1onc(NS(=O)(=O)c2ccc(-n3cc(CSc4nc5ccccc5n4Cc4cn(-c5ccc(S(=O)(=O)Nc6noc(C)c6C)cc5)nn4)nn3)cc2)c1C [compound 9]", "Experimental Target": "SARS-CoV-2 spike protein (Severe acute respiratory syndrome coronavirus 2)", "Measurement Unit": "%", "remaining activity at 0.1 µM": 67.1}
{"Compound": "O=C(Cn1cc(CSc2nc3ccccc3n2Cc2cn(CC(=O)NNC(=S)Nc3ccc(F)cc3)nn2)nn1)NNC(=S)Nc1ccc(F)cc1 [compound 5]", "Experimental Target": "SARS-CoV-2 spike protein (Severe acute respiratory syndrome coronavirus 2)", "Measurement Unit": "%", "remaining activity at 0.1 µM": 83.8}
{"Compound": "O=C(Cn1cc(CSc2nc3ccccc3n2Cc2cn(CC(=O)NNC(=S)Nc3ccccc3)nn2)nn1)NNC(=S)Nc1ccccc1 [compound 4]", "Experimental Target": "SARS-CoV-2 spike protein (Severe acute respiratory syndrome coronavirus 2)", "Measurement Unit": "%", "remaining activity at 0.1 µM": 74.6}
{"Compound": "Cc1ccc2nc(NC(=O)Cn3cc(CN4C(=O)C(=O)c5ccccc54)nn3)sc2c1 [compound 12]", "Experimental Target": "SARS-CoV-2 spike protein (Severe acute respiratory syndrome coronavirus 2)", "Measurement Unit": "%", "remaining activity at 0.1 µM": 95.9}

---

# Experimental Target: SARS-CoV-2 spike protein (Severe acute respiratory syndrome coronavirus 2, UniProt P0DTC2)
# Construct: purchased Biosource, Muskego, WI, USA
# Method Summary: biochemical
# Format: binding
# Condition Parameters: tested concentration 100 nM; read-out: remaining activity % of SARS-CoV-2 spike proteins

{"Molecule": "Nn1c(Cn2cc(CSc3nc4ccccc4n3Cc3cn(Cc4n[nH]c(=S)n4N)nn3)nn2)n[nH]c1=S [compound 7]", "remaining activity at 0.1 µM": "86.1%"}
{"Molecule": "CC(C)(O/N=C(\\C(=O)N[C@@H]1C(=O)N2C(C(=O)[O-])=C(C[n+]3ccccc3)CS[C@H]12)c1csc(N)n1)C(=O)O [Ceftazidime, ceftazidime, reference compound]", "remaining activity at 0.1 µM": "99%"}
{"Molecule": "S=c1[nH]nc(Cn2cc(CSc3nc4ccccc4n3Cc3cn(Cc4n[nH]c(=S)n4-c4ccccc4)nn3)nn2)n1-c1ccccc1 [compound 6]", "remaining activity at 0.1 µM": "79.9%"}

---

# Experimental Target: SARS-CoV-2 spike protein (Severe acute respiratory syndrome coronavirus 2)
# Construct: purchased Biosource, Muskego, WI, USA
# Method Summary: biochemical
# Assay type: binding
# Condition Parameters: tested concentration 500 nM; read-out: remaining activity % of SARS-CoV-2 spike proteins
Assay Readout: remaining activity at 0.5 µM (%)

{"Molecule": "O=C(Cn1cc(CSc2nc3ccccc3n2Cc2cn(CC(=O)NNC(=S)Nc3ccccc3)nn2)nn1)NNC(=S)Nc1ccccc1", "Measurement Unit": "%", "Measured Value": 21.9}
{"Molecule": "Nn1c(Cn2cc(CSc3nc4ccccc4n3Cc3cn(Cc4n[nH]c(=S)n4N)nn3)nn2)n[nH]c1=S", "Measurement Unit": "%", "Measured Value": 58.6}
{"Molecule": "S=c1[nH]nc(Cn2cc(CSc3nc4ccccc4n3Cc3cn(Cc4n[nH]c(=S)n4-c4ccccc4)nn3)nn2)n1-c1ccccc1", "Measurement Unit": "%", "Measured Value": 38.2}
{"Molecule": "CC(C)(O/N=C(\\C(=O)N[C@@H]1C(=O)N2C(C(=O)[O-])=C(C[n+]3ccccc3)CS[C@H]12)c1csc(N)n1)C(=O)O [Ceftazidime, ceftazidime, reference compound]", "Measurement Unit": "%", "Measured Value": 59}
{"Molecule": "O=C(Cn1cc(CSc2nc3ccccc3n2Cc2cn(CC(=O)NNC(=S)Nc3ccc(F)cc3)nn2)nn1)NNC(=S)Nc1ccc(F)cc1", "Measurement Unit": "%", "Measured Value": 45.8}
{"Molecule": "Cc1onc(NS(=O)(=O)c2ccc(-n3cc(CSc4nc5ccccc5n4Cc4cn(-c5ccc(S(=O)(=O)Nc6noc(C)c6C)cc5)nn4)nn3)cc2)c1C", "Measurement Unit": "%", "Measured Value": 11.4}
{"Molecule": "Cc1ccc2nc(NC(=O)Cn3cc(CN4C(=O)C(=O)c5ccccc54)nn3)sc2c1", "Measurement Unit": "%", "Measured Value": 82}

---

# Experimental Target: SARS-CoV-2 spike protein (Severe acute respiratory syndrome coronavirus 2)
# Construct: purchased Biosource, Muskego, WI, USA
# Method Summary: biochemical
# Format: binding
# Condition Parameters: tested concentration 200 nM; read-out: remaining activity % of SARS-CoV-2 spike proteins

{"Molecule": "O=C(Cn1cc(CSc2nc3ccccc3n2Cc2cn(CC(=O)NNC(=S)Nc3ccc(F)cc3)nn2)nn1)NNC(=S)Nc1ccc(F)cc1", "remaining activity at 0.2 µM [%]": 70.2}
{"Molecule": "Cc1onc(NS(=O)(=O)c2ccc(-n3cc(CSc4nc5ccccc5n4Cc4cn(-c5ccc(S(=O)(=O)Nc6noc(C)c6C)cc5)nn4)nn3)cc2)c1C", "remaining activity at 0.2 µM [%]": 32.7}
{"Molecule": "CC(C)(O/N=C(\\C(=O)N[C@@H]1C(=O)N2C(C(=O)[O-])=C(C[n+]3ccccc3)CS[C@H]12)c1csc(N)n1)C(=O)O [Ceftazidime, ceftazidime, reference compound]", "remaining activity at 0.2 µM [%]": 79}

---

# Experimental Target: SARS-CoV-2 spike protein (Severe acute respiratory syndrome coronavirus 2)
# Construct: purchased Biosource, Muskego, WI, USA
# Method Summary: biochemical
# Type: binding
# Condition Parameters: tested concentration 1000 nM; read-out: remaining activity % of SARS-CoV-2 spike proteins
Flag rule - remaining activity at 1 µM less than 20% flags Yes; the remaining entries get No.

{"Compound": "O=C(Cn1cc(CSc2nc3ccccc3n2Cc2cn(CC(=O)NNC(=S)Nc3ccc(F)cc3)nn2)nn1)NNC(=S)Nc1ccc(F)cc1", "Class Label": "No"}
{"Compound": "Cc1ccc2nc(NC(=O)Cn3cc(CN4C(=O)C(=O)c5ccccc54)nn3)sc2c1", "Class Label": "No"}
{"Compound": "Cc1onc(NS(=O)(=O)c2ccc(-n3cc(CSc4nc5ccccc5n4Cc4cn(-c5ccc(S(=O)(=O)Nc6noc(C)c6C)cc5)nn4)nn3)cc2)c1C", "Class Label": "Yes"}
{"Compound": "CC(C)(O/N=C(\\C(=O)N[C@@H]1C(=O)N2C(C(=O)[O-])=C(C[n+]3ccccc3)CS[C@H]12)c1csc(N)n1)C(=O)O [Ceftazidime, ceftazidime, reference compound]", "Class Label": "No"}
{"Compound": "Nn1c(Cn2cc(CSc3nc4ccccc4n3Cc3cn(Cc4n[nH]c(=S)n4N)nn3)nn2)n[nH]c1=S", "Class Label": "No"}
{"Compound": "O=C(Cn1cc(CSc2nc3ccccc3n2Cc2cn(CC(=O)NNC(=S)Nc3ccccc3)nn2)nn1)NNC(=S)Nc1ccccc1", "Class Label": "Yes"}

---

# Experimental Target: SARS-CoV-2 spike protein (Severe acute respiratory syndrome coronavirus 2, UniProt P0DTC2)
# Construct: purchased Biosource, Muskego, WI, USA
# Method Summary: biochemical
# Type: binding
# Condition Parameters: tested concentration 750 nM; read-out: remaining activity % of SARS-CoV-2 spike proteins
Exam item: assign Condition met to entries whose remaining activity at 0.75 µM is below 30% and Condition not met to entries at or above 30%. Note that a value of exactly 30% receives Condition not met.

{"Molecule": "S=c1[nH]nc(Cn2cc(CSc3nc4ccccc4n3Cc3cn(Cc4n[nH]c(=S)n4-c4ccccc4)nn3)nn2)n1-c1ccccc1 [compound 6]", "Class Label": "Condition met"}
{"Molecule": "Cc1onc(NS(=O)(=O)c2ccc(-n3cc(CSc4nc5ccccc5n4Cc4cn(-c5ccc(S(=O)(=O)Nc6noc(C)c6C)cc5)nn4)nn3)cc2)c1C [compound 9]", "Class Label": "Condition met"}
{"Molecule": "O=C(Cn1cc(CSc2nc3ccccc3n2Cc2cn(CC(=O)NNC(=S)Nc3ccc(F)cc3)nn2)nn1)NNC(=S)Nc1ccc(F)cc1 [compound 5]", "Class Label": "Condition not met"}
{"Molecule": "O=C(Cn1cc(CSc2nc3ccccc3n2Cc2cn(CC(=O)NNC(=S)Nc3ccccc3)nn2)nn1)NNC(=S)Nc1ccccc1 [compound 4]", "Class Label": "Condition met"}
{"Molecule": "Nn1c(Cn2cc(CSc3nc4ccccc4n3Cc3cn(Cc4n[nH]c(=S)n4N)nn3)nn2)n[nH]c1=S [compound 7]", "Class Label": "Condition not met"}
{"Molecule": "Cc1ccc2nc(NC(=O)Cn3cc(CN4C(=O)C(=O)c5ccccc54)nn3)sc2c1 [compound 12]", "Class Label": "Condition not met"}
{"Molecule": "CC(C)(O/N=C(\\C(=O)N[C@@H]1C(=O)N2C(C(=O)[O-])=C(C[n+]3ccccc3)CS[C@H]12)c1csc(N)n1)C(=O)O [Ceftazidime, ceftazidime, reference compound]", "Class Label": "Condition not met"}
